All values here come from the RNAGym collection of RNA variant scans (doi:10.1093/nar/gkz1192).

B1: CPEB3 Ribozyme (parent)
chain: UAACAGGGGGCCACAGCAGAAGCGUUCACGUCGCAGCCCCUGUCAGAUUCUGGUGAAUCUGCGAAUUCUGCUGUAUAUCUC

Variants of: B1
Assay: self-cleavage, relative activity (ratio to wild type); higher = more cleavage; in vitro, sequencing
Each entry below carries its recorded self-cleavage.
Enter the number alone.

Some variants with known self-cleavage results, for comparison:
[
  {
    "mutation_name": "A5U A57C",
    "self-cleavage": 0.7
  },
  {
    "mutation_name": "C12U C34A",
    "self-cleavage": 0.68
  }
]

The record that follows has no self-cleavage shown yet.
Given A15G U48G , respond with its self-cleavage.
0.72
